Biological target: human mGlu4 (Homo sapiens (Human), UniProt Q14833)
Sequence (Q14833 33-912): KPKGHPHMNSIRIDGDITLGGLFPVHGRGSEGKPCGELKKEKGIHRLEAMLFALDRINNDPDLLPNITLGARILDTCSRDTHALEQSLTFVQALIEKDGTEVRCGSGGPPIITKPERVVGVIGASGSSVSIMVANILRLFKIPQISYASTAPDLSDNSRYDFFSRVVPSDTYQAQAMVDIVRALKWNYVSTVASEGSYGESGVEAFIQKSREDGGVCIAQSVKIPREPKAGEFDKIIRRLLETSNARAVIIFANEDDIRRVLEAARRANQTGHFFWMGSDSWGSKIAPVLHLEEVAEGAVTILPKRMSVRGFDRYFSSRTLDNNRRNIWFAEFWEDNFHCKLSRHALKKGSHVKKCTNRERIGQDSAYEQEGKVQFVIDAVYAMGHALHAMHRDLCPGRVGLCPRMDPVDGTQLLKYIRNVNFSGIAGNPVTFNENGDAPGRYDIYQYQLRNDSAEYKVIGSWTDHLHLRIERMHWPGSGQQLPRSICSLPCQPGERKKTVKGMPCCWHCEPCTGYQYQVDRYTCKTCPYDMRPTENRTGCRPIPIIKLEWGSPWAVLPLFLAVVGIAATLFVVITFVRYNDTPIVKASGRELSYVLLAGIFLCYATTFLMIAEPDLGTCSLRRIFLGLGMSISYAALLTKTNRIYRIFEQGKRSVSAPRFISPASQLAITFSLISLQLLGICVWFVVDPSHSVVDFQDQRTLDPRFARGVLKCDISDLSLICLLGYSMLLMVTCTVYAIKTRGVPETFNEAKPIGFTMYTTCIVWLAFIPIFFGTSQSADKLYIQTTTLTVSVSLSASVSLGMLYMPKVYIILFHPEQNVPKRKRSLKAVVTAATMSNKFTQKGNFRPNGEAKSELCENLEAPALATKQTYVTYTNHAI
Assay: mGlu4 PAM assay in human mGlu4/Gqi5 cells with ~EC20 glutamate (Hamamatsu FDSS)
Assay type: cell-based
Details: ~EC20 concentration of glutamate, read-out: mGlu4 PAM EC50
Entries whose EC50 is below 200 nM take 1; entries at or above 200 nM take 0.

Cn1nc(OCCN2CCOCC2)c2ccc(Nc3n[nH]c4cccnc34)cc21 ... 0

Now consider a different compound.
*Q* Bench note: check whether COc1nn(C)c2cc(Nc3n[nH]c4cccnc34)cc(Cl)c12 shows EC50 below 200 nM
*A* 0

====

Assay: Brain-Plasma Kp
Type: in vivo
Settings: rat, brain and plasma
Give measured Kp for each item. Keep answers brief.
Numbers only.

O=C(Nc1ccc2c(OC[C@H]3CCOC3)n[nH]c2c1)c1ccccn1 ... 1.42

Dear colleague, could you please provide Kp for the compounds listed below?
1. Cn1nc(OC[C@H]2CCOC2)c2ncc(NC(=O)c3ncccc3N)cc21 [drawing 247]
2. Cn1nc(OCC2CCOC2)c2ccc(NC(=O)c3ncccc3N)cc21 (centres unmarked) [drawing 241]

*A*
[1.83, 3.09]

Hi team, please reply with Kp for each item in this list.
1. Cn1nc(C(=O)NC23CC(F)(C2)C3)c2ccc(NC(=O)c3ccccn3)cc21
2. Cn1nc(OC[C@@H]2CCOC2)c2ccc(NC(=O)c3ncccc3N)cc21 [drawing 244]

*A*
1.43
2.47

====

Molecular target: human mGlu4 (Homo sapiens (Human))
Test: mGlu4 PAM assay in human mGlu4/Gqi5 cells with ~EC20 glutamate (Hamamatsu FDSS)
Type: cell-based
Conditions: ~EC20 concentration of glutamate, read-out: mGlu4 PAM EC50
Experimental Readout: EC50 (nM)
Numbers only, in nM.

Cn1nc(OCC2COCCO2)c2ccc(Nc3n[nH]c4ncccc34)cc21 (stereo not drawn) [Compound 112] ... 176

Quick batch: EC50 for everything below.
1. COCCOc1nn(C)c2cc(Nc3n[nH]c4ncccc34)ccc12 [Compound 34]
2. Cn1nc(Oc2ccc(C#N)cn2)c2c(Cl)cc(Nc3n[nH]c4cccnc34)cc21 [Compound 25]
3. Cn1nc(OC2COC2)c2ccc(Nc3n[nH]c4cccnc34)cc21 [Compound 22]
4. Cn1nc(OCC2CC2(F)F)c2ccc(Nc3n[nH]c4cccnc34)cc21 (stereo not drawn) [Compound 31]
5. Cn1nc(OCC2CCCOC2)c2ccc(NC(=O)c3ncccc3O)cc21 (stereo not drawn) [Compound 87]

*A*
1: 529; 2: 482; 3: 629; 4: 112; 5: 100

For each of the items listed, what is its EC50?
1. Cn1nc(OC2CCOC(C)(C)C2)c2ccc(Nc3n[nH]c4cccnc34)cc21 (stereo not drawn) [Compound 63]
2. Cn1nc(OC2CCS(=O)(=O)C2)c2ccc(NC(=O)c3ncccc3N)cc21 (stereo not drawn) [Compound 54]
3. Cn1nc(OC2CC3CCC2O3)c2ccc(Nc3n[nH]c4ncccc34)cc21 (stereo not drawn) [Compound 38]

*A*
[169, 117, 601]

====

Target: human mGlu4 (Homo sapiens (Human))
Test: mGlu4 PAM assay in human mGlu4/Gqi5 cells with ~EC20 glutamate (Hamamatsu FDSS)
Format: cell-based
Details: ~EC20 concentration of glutamate, read-out: mGlu4 PAM EC50
Record form. Attribute: pEC50. Fill in for each entry.
Give bare numbers, as −log10 of the molar value.

Example entries and their recorded answers appear below.
Cn1nc(OCC2CCOCC2)c2ccc(NC(=O)c3ccccn3)cc21 ... 7.20
Cn1nc(OCC2CCOC2)c2ccc(NC(=O)c3cccc(Cl)n3)cc21 (stereo not shown) ... 6.09
Cn1nc(OCc2ccncc2)c2ccc(Nc3n[nH]c4cccnc34)cc21 ... 7.18
Cn1nc(OC[C@H]2COCCO2)c2ccc(NC(=O)c3ncccc3N)cc21 [Compound 131] ... 7.30
Cn1nc(OCC2CCCCO2)c2ccc(Nc3n[nH]c4cccnc34)cc21 (stereo not shown) ... 7.07

Dear colleague, could you send me pEC50 for each of the items below? Thanks.
1. CC1CC(COc2nn(C)c3cc(NC(=O)c4ccc(F)cn4)ccc23)CC(C)O1 (stereo not shown)
2. Cn1nc(OC2CC3CCC2O3)c2ccc(Nc3n[nH]c4cccnc34)cc21 (stereo not shown)
3. COCCCOc1nn(C)c2cc(Nc3n[nH]c4cccnc34)ccc12
4. Cn1nc(OCC(F)(F)F)c2ccc(Nc3n[nH]c4cccnc34)cc21

*A*
1. 7.08
2. 6.51
3. 6.76
4. 6.76

// each listed molecule needs a value for pEC50
1. COCCOc1nn(C)c2cc(Nc3n[nH]c4cccnc34)ccc12
2. Cn1nc(OC2CCS(=O)(=O)CC2)c2ccc(Nc3n[nH]c4cccnc34)cc21
3. Cn1nc(OCCN2CCOCC2)c2ccc(NC(=O)c3ncccc3N)cc21
4. Cn1nc(OCC2CCCOC2)c2ccc(NC(=O)c3ccccn3)cc21 (stereo not shown)
5. Cn1nc(OCC2CCOCC2)c2ncc(NC(=O)c3ncccc3N)cc21

*A*
1: 6.42; 2: 6.67; 3: 6.88; 4: 6.77; 5: 7.30
